experimentalProtocol: Phase 1 drug–drug interaction study: plasma PK of quizartinib, AC886 and quizartinib + AC886 after a single 30-mg quizartinib tablet alone or with lansoprazole
Type: in vivo, human
conditionContext: human, plasma, oral, 30 mg; read-out: Vz/F (CV%), geometric mean
quantityName: Vd/F (L)

[[record]]
smi = "CC(C)(C)c1cc(NC(=O)Nc2ccc(-c3cn4c(n3)sc3cc(OCCN5CCOCC5)ccc34)cc2)no1"
recordedmeasurement = 431


###

experimentalProtocol: Phase 1 drug–drug interaction study: plasma PK of quizartinib, AC886 and quizartinib + AC886 after a single 30-mg quizartinib tablet alone or with lansoprazole
Format: in vivo, human
conditionContext: human, plasma, oral, 30 mg, quizartinib in plasma; single 30-mg quizartinib alone, n = 30; read-out: AUClast (CV%), geometric mean
quantityName: AUC(0-t) (ng·h/mL)

[[record]]
smi = "CC(C)(C)c1cc(NC(=O)Nc2ccc(-c3cn4c(n3)sc3cc(OCCN5CCOCC5)ccc34)cc2)no1"
recordedmeasurement = 8330


Origin of the recorded values: paper PMC6768889
